assay: clinical; details: human, in vivo, 10 mg, Vz/Fss
REPORTED METRIC: Vd/F

{"MOLECULE SMILES": "CN(C)C/C=C/C(=O)Nc1cc2c(Nc3ccc(F)c(Cl)c3)ncnc2cc1O[C@H]1CCOC1", "MEASURED RESULT": "8080 L"}

###

assay: clinical; conditions: human, in vivo, 55 mg, Cmax,ss

{"MOLECULE": "CN(C)C/C=C/C(=O)Nc1cc2c(Nc3ccc(F)c(Cl)c3)ncnc2cc1O[C@H]1CCOC1 [afatinib]", "Cmax": "90.8 ng/mL"}

###

experiment: clinical; settings: human, in vivo, 20 mg

{"COMPOUND": "CN(C)C/C=C/C(=O)Nc1cc2c(Nc3ccc(F)c(Cl)c3)ncnc2cc1O[C@H]1CCOC1 [afatinib]", "half-life, h": 43.2}
